Molecular target: UniProtKB P53396
Assay: ACLY-MDH Coupled Assay
Sequence (P53396 whole entry, species assumed): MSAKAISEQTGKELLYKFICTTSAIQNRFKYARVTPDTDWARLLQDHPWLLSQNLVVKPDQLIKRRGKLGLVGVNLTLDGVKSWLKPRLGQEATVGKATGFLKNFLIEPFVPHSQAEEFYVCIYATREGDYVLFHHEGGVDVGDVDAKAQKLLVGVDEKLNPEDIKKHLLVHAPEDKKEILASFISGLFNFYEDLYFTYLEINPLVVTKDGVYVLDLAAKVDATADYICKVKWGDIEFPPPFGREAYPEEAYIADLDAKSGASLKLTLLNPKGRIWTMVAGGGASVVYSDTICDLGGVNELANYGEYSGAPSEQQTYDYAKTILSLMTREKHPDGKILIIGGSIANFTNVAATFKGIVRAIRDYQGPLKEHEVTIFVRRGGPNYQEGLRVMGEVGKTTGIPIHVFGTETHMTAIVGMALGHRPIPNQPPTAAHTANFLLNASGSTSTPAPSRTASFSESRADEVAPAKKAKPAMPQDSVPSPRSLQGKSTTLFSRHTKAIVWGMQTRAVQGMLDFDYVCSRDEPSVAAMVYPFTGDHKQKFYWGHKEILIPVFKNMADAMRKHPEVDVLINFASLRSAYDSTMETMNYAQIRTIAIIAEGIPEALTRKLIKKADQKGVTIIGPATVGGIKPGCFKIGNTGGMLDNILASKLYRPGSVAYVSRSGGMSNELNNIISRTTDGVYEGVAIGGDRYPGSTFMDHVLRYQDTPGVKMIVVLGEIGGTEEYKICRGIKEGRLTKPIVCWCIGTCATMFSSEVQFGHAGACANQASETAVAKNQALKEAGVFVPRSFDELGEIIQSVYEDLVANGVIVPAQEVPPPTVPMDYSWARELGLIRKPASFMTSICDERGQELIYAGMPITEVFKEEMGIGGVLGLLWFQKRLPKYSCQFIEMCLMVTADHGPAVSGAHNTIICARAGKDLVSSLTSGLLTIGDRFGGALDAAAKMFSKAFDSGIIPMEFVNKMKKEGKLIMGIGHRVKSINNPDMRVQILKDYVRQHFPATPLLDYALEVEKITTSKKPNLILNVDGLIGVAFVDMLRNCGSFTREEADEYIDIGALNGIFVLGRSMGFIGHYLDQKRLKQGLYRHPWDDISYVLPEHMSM
parameter: IC50

Any idea what IC50 was measured for O=C(O)c1ccc(-c2ccccc2)cc1NS(=O)(=O)N1CCC2(CCCCC2)CC1 [I-340] ?
500 to 30000 nM

GET /values?readout=IC50&item= O=C(O)c1ccc(-c2ccccc2)cc1NS(=O)(=O)Cc1cc(Cl)cc(Cl)c1 [I-305]
500 to 30000 nM

# lookup: IC50 of O=S(=O)(Nc1cc(-c2ccccc2)c(F)cc1F)c1cc(F)cc(Cl)c1O [I-135]
50 to 500 nM

Dear colleague, I am looking for the recorded IC50 of the following compound: CCC(=O)Oc1c(Cl)cc(Cl)cc1S(=O)(=O)Nc1cc(-c2ccccc2)ccc1F [I-50]
500 to 30000 nM

Value lookup for IC50; key = CCOc1c(Cl)cc(Cl)cc1S(=O)(=O)Nc1cc(-c2ccccc2)ccc1C(=O)O [I-348]
50 to 500 nM

Please look up its IC50: O=S(=O)(Nc1ccc(-c2ccccn2)cc1F)c1cc(Cl)cc(Cl)c1O [I-235]
500 to 30000 nM

Look up IC50 for this compound: O=C(O)c1cc(Cl)c(O)c(S(=O)(=O)Nc2cc(-c3ccccc3)c(F)cc2F)c1 [I-95]
50 to 500 nM

Reported IC50, compound O=C(O)c1ccc(-c2cccs2)cc1NS(=O)(=O)c1cc(Cl)cc(Cl)c1 [I-275] : ____
50 to 500 nM

Given O=C(c1cc(Cl)c(O)c(S(=O)(=O)Nc2cc(-c3ccccc3)c(F)cc2F)c1)N1Cc2ccccc2C1 [I-100] , state its recorded IC50.
500 to 30000 nM

---

Biological target: ACL (Homo sapiens (Human), UniProt P53396)
Assay: ADP-Glo Assay
Conditions: read-out: ACL-ADP-Glo (IC50); 3 nM ACL, 15 μM ATP, 3 μM CoA, 300 μM Citrate
Sequence (P53396 other isoform, or with tags, fused parts or gaps isoform P53396-2): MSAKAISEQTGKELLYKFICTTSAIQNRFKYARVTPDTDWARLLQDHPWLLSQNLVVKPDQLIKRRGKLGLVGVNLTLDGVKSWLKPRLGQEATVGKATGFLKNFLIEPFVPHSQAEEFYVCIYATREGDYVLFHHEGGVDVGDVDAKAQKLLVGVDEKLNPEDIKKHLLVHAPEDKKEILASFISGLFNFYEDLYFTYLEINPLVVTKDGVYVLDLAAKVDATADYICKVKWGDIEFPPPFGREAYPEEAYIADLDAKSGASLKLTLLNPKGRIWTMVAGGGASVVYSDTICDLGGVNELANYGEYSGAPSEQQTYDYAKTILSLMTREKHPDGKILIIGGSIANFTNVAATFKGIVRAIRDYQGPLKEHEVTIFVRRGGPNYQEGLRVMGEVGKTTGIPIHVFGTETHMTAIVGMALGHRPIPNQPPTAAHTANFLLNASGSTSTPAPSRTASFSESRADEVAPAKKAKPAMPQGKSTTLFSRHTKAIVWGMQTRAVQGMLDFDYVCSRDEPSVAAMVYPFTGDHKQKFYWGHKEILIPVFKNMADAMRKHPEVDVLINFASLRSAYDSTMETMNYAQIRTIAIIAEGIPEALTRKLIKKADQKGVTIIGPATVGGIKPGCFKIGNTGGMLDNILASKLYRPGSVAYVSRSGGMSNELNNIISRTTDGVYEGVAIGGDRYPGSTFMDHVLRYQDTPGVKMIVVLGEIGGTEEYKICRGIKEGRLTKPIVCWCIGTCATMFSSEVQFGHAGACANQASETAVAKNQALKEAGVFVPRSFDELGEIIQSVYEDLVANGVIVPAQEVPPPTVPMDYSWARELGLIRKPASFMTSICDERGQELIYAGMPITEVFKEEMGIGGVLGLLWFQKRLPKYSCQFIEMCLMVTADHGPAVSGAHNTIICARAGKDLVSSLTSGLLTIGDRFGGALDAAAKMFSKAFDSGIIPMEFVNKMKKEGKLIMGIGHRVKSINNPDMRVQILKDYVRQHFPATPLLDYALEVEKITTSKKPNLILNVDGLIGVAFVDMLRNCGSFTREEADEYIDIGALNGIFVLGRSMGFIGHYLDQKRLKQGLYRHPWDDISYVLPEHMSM
Listed compounds paired with reported IC50

What measured IC50 goes with COC(=O)c1cc(Cl)c(O)c(S(=O)(=O)Nc2cc(-c3ccccc3)cc(F)c2F)c1 [I-111] ?
< 0.05 µM

Which IC50 reading was recorded for the compound O=S(=O)(Nc1cc(-c2ccccc2)c(F)cc1F)c1cc(Cl)cc(Cl)c1O [I-41] ?
< 0.05 µM

---

Molecular target: UniProtKB P53396
Assay: ADP-Glo Assay
pIC50: −log10 of the molar value.
parameter: pIC50

Below: 4 molecules and their reported pIC50.
[[record]]
molecule = "COc1ccc(-c2ccccc2)cc1N(C)S(=O)(=O)c1cc(C(=O)O)cc(Cl)c1O [I-426]"
measured_on = "UniProtKB P53396"
endpoint_result = "< 4.70"

[[record]]
molecule = "O=C(Nc1cc(-c2ccccc2)c(F)cc1F)c1cc(C(=O)N2CCCC2)cc(Cl)c1O [I-150]"
measured_on = "UniProtKB P53396"
endpoint_result = "4.70 to 6.30"

[[record]]
molecule = "CC(C)(C)OC(=O)COc1ccc(-c2ccccc2)cc1NS(=O)(=O)c1cc(Cl)cc(Cl)c1O [I-214]"
measured_on = "UniProtKB P53396"
endpoint_result = "4.70 to 6.30"

[[record]]
molecule = "CCC(=O)Oc1c(Cl)cc(C(=O)OC)cc1S(=O)(=O)Nc1cc(-c2ccccc2)ccc1F [I-120]"
measured_on = "UniProtKB P53396"
endpoint_result = "6.30 to 7.30"


Turning now to a further record.
Fill in the blank: the reported pIC50 of O=C(O)COc1ccccc1S(=O)(=O)Nc1cc(-c2ccccc2)ccc1F [I-379] is ____.
< 4.70

---

Molecular target: UniProt:P53396
Assay: ACLY-MDH Coupled Assay
pIC50: −log10 of the molar value.
parameter: pIC50

[[record]]
input_smiles = "CC(C)(C)C1CCN(S(=O)(=O)Nc2cc(-c3ccccc3)ccc2C(=O)O)CC1"
endpoint_result = "4.52 to 6.30"

[[record]]
input_smiles = "O=C(c1cc(Cl)c(O)c(S(=O)(=O)Nc2cc(-c3ccccc3)c(F)cc2F)c1)N1CCOCC1"
endpoint_result = "4.52 to 6.30"

[[record]]
input_smiles = "COc1cc(Br)ccc1NS(=O)(=O)c1cc(Cl)cc(Cl)c1O"
endpoint_result = "4.52 to 6.30"

[[record]]
input_smiles = "O=C(O)c1ccc(-c2ccccc2)cc1NS(=O)(=O)c1cc(Cl)sc1Cl"
endpoint_result = "4.52 to 6.30"

[[record]]
input_smiles = "O=C(c1cc(Cl)c(O)c(S(=O)(=O)Nc2cc(-c3ccccc3)c(F)cc2F)c1)N1CC(O)C1"
endpoint_result = "6.30 to 7.30"


What pIC50 value was documented for this compound, O=C(O)c1c(NS(=O)(=O)c2cc(Cl)cc(Cl)c2)sc2ccccc12 ?
4.52 to 6.30

So what's the measured pIC50 for this one? COCc1cc(Cl)c(O)c(S(=O)(=O)Nc2cc(-c3ccccc3)c(F)cc2F)c1
6.30 to 7.30

---

System: HepG2 cells
Settings: Homo sapiens, HepG2, read-out: ACLY HepG2 14C-Pyruvate Assay serum free IC50 FA (IC50) [μM]
parameter: IC50

[[record]]
input_smiles = "O=C(O)c1ccc(-c2ccccc2)cc1NS(=O)(=O)c1cc(F)cc(Cl)c1"
endpoint_result = "1 to 10 µM"

[[record]]
input_smiles = "CN(C)C(=O)c1cc(Cl)c(O)c(S(=O)(=O)Nc2cc(-c3ccccc3)c(F)cc2F)c1"
endpoint_result = "> 10 µM"

[[record]]
input_smiles = "O=S(=O)(Nc1cc(-c2ccccc2)c(F)cc1F)c1cc(CO)cc(Cl)c1O"
endpoint_result = "> 10 µM"

[[record]]
input_smiles = "Cc1cc(Cl)c(O)c(S(=O)(=O)Nc2cc(-c3ccccc3)c(F)cc2F)c1"
endpoint_result = "1 to 10 µM"

[[record]]
input_smiles = "O=S(=O)(Nc1cc(-c2ccccc2)c(F)cc1F)c1cc(C(F)(F)F)cc(Cl)c1O"
endpoint_result = "1 to 10 µM"


Given the entry COc1ccc(-c2cccs2)cc1NS(=O)(=O)c1cc(Cl)cc(Cl)c1O , report its measured IC50.
1 to 10 µM

Dear colleague, I am looking for the recorded IC50 of the following molecule: O=S(=O)(Nc1cc(-c2ccccc2)ccc1F)c1cc(Cl)cc(Cl)c1O
1 to 10 µM

Would you kindly share the measured IC50 for O=S(=O)(Nc1cc(-c2ccccc2)ccc1F)c1cc(Br)cc(Cl)c1O ?
> 10 µM

// IC50 lookup, key: O=S(=O)(Nc1cc(-c2ccccc2)ccc1F)c1cccc(Cl)c1O
> 10 µM

---

Target: ACLY enzyme, from S100 fraction of rat livers (Rattus norvegicus (Rat))
Sequence (P16638 whole entry): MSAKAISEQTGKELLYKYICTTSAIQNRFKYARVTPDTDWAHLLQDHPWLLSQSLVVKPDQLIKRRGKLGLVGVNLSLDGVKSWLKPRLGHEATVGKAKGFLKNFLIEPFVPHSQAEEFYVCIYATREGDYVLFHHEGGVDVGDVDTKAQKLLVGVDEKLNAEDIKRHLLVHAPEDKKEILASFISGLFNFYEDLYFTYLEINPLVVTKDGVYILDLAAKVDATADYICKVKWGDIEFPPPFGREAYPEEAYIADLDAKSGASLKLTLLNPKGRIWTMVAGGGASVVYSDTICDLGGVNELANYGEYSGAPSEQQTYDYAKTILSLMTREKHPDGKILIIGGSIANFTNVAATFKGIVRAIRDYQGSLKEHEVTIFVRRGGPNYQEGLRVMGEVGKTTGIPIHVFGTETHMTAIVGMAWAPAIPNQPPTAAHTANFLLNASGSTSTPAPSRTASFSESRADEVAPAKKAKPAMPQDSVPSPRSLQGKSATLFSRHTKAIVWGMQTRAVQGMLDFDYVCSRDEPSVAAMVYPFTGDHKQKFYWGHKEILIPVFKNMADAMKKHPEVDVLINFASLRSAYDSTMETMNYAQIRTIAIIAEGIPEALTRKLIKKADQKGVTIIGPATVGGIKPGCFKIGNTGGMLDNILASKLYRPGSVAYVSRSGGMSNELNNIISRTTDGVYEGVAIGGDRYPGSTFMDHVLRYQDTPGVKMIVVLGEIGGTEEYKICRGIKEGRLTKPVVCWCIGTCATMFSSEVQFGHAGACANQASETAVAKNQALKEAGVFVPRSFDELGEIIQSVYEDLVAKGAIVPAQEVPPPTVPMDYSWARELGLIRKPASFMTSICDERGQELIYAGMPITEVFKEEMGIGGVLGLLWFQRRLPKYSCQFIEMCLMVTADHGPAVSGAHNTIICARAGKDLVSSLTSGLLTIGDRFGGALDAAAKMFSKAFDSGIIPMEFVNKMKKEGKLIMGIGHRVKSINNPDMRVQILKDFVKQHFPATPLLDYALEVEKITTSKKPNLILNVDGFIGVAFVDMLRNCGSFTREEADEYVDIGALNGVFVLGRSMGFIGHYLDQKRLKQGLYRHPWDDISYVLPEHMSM
pIC50: −log10 of the molar value.
parameter: pIC50

Query: pIC50; subject: O=S(=O)(Nc1cc(-c2ccccc2)ccc1F)c1cc(Cl)cc(Cl)c1O
5.30 to 6.00

---

Molecular target: ACL (Homo sapiens (Human))
Experiment: ADP-Glo Assay
parameter: IC50

Past entries and their recorded results:
[[record]]
input_smiles = "O=S(=O)(Nc1cc(-c2ccccc2)ccc1O)c1cc(Cl)cc(Cl)c1"
endpoint_result = "500 to 20000 nM"

[[record]]
input_smiles = "O=C(COc1c(Cl)cc(C(=O)N2CCC2)cc1S(=O)(=O)Nc1cc(-c2ccccc2)c(F)cc1F)OCc1ccccc1"
endpoint_result = "> 20000 nM"

[[record]]
input_smiles = "O=C(Nc1cc(-c2ccccc2)c(F)cc1C(=O)O)c1cc(Cl)cc(Cl)c1"
endpoint_result = "500 to 20000 nM"

[[record]]
input_smiles = "O=S(=O)(NCc1cc(-c2ccccc2)ccc1F)c1cc(Cl)cc(Cl)c1O"
endpoint_result = "500 to 20000 nM"

[[record]]
input_smiles = "O=S(=O)(Nc1cc(-c2ccccc2)ccc1F)c1ccc(Cl)c(-c2nnn[nH]2)c1"
endpoint_result = "500 to 20000 nM"

[[record]]
input_smiles = "O=C(O)c1ccc(-c2ccccc2)cc1NS(=O)(=O)c1ccc(C(F)(F)F)cc1"
endpoint_result = "500 to 20000 nM"

[[record]]
input_smiles = "O=C(c1cc(Cl)c(O)c(S(=O)(=O)Nc2cc(-c3cccnc3)c(F)cc2F)c1)N1CCC1"
endpoint_result = "50 to 500 nM"


IC50 of O=S(=O)(Nc1cc(-c2ccccc2)c(F)cc1F)c1cc(Cl)cc(Br)c1 on ACL (Homo sapiens (Human))?
500 to 20000 nM

---

Target: ACL (Homo sapiens (Human))
Test: ADP-Glo Assay
parameter: IC50

Would you please look over these solved cases?
[[record]]
compound = "Cc1cc(C)cc(S(=O)(=O)Nc2cc(-c3ccccc3)ccc2C(=O)O)c1 [I-232]"
parameter = "IC50"
endpoint_result = "0.5 to 20 µM"

[[record]]
compound = "COC(=O)c1cc(Cl)c(OC)c(S(=O)(=O)Nc2cc(-c3cccs3)ccc2F)c1 [I-52]"
parameter = "IC50"
endpoint_result = "0.5 to 20 µM"

[[record]]
compound = "O=C(O)c1ccsc1NS(=O)(=O)c1cc(Cl)cc(Cl)c1 [I-352]"
parameter = "IC50"
endpoint_result = "0.5 to 20 µM"

[[record]]
compound = "COc1ccc(-c2ccccc2)cc1NS(=O)(=O)c1cc(C(=O)O)cc(Cl)c1OC [I-39]"
parameter = "IC50"
endpoint_result = "0.5 to 20 µM"

[[record]]
compound = "CCC(=O)Oc1c(Cl)cc(Cl)cc1S(=O)(=O)Nc1cc(-c2ccccc2)ccc1F [I-50]"
parameter = "IC50"
endpoint_result = "0.5 to 20 µM"


Requested field: IC50. Item: C=CCN(c1cc(-c2ccccc2)ccc1F)S(=O)(=O)c1cc(C(=O)OC)cc(Cl)c1O [I-108]
0.5 to 20 µM

I have this compound here, O=C(Nc1cc(-c2ccccc2)ccc1F)c1cc(Cl)cc(Cl)c1O [I-27] , and I need its recorded IC50.
0.5 to 20 µM

Can you look up the measured IC50 of Cc1cccc(CS(=O)(=O)Nc2cc(-c3ccccc3)ccc2C(=O)O)c1 [I-310] for me?
0.5 to 20 µM

Please give the measured IC50 for this compound: COc1ccc(-c2ccccc2)cc1NS(=O)(=O)c1cc(-c2ncco2)cc(Cl)c1O [I-59]
0.05 to 0.5 µM

Quick one: IC50 of COc1ccc(-c2ccccc2)cc1NS(=O)(=O)c1cc(C(=O)O)cc(Cl)c1O [I-2] ?
0.5 to 20 µM

# get_value(readout='IC50', item= COc1ccc(-c2ccccc2)cc1N(Cc1cc(Cl)cc(Cl)c1O)S(C)(=O)=O [I-391] )
> 20 µM

Returns the measured IC50 for the input compound. Input: COc1ccc(-c2ccccc2)cc1NS(=O)(=O)c1cc(Cl)cc(Cl)c1F [I-394]
> 20 µM

Return reported IC50; argument: O=C(O)c1cc(NC(=O)c2cccc3ncccc23)ccc1Cl [I-531]
> 20 µM

I would be grateful if you could share the reported IC50 for O=C(O)c1cc(-c2ccccc2)ccc1NS(=O)(=O)c1cc(Cl)cc(Cl)c1 [I-278] .
0.5 to 20 µM

Can you look up the measured IC50 of O=C(O)c1cc(Cl)c(O)c(S(=O)(=O)Nc2cc(-c3ccccc3)ccn2)c1 [I-536] for me?
> 20 µM

IC50 for CC(C)(CNS(=O)(=O)c1cc(Cl)cc(Cl)c1O)c1cccs1 [I-173] ?
0.5 to 20 µM

Tell me the measured IC50 of COc1ccc(-c2ccccc2)cc1NS(=O)(=O)c1ccccc1O [I-528] , please.
> 20 µM

For the compound shown here, O=S(=O)(Nc1cccc2cccc(F)c12)c1cc(Cl)cc(Cl)c1O [I-186] , give the reported IC50.
0.5 to 20 µM

Please report the recorded IC50 for O=C(O)c1ccc(-c2ccccc2)cc1NS(=O)(=O)c1ccnn1CCc1ccccc1 [I-330] .
0.5 to 20 µM
